# System: C2C12 (NDUFB8-AcGFP / COX8A-DsRed-Monomer FRET reporter)
# protocolDetails: cFRET/donor change relative to DMSO, normalised to beta-lapachone positive control (supercomplex I-IV assembly) (fraction of beta-lapachone effect); higher = more respiratory supercomplex assembly
# details: 40 µM; 24 h
Over roughly 1,000 compounds, “cFRET/donor change relative to DMSO, normalised to beta-lapachone positive control (supercomplex I-IV assembly)” has its median near 0.18; the lowest 2% begin near -1. This is one part of a sample in which the lowest values are shown more often than they occur.
outcomeMeasure: cFRET/donor change
Lab note: write the figure by itself, no unit.

Worked cases, answers included:
>>> measurednumber("NC(CCP(=O)(O)O)C(=O)O (racemic) [(±)-2-Amino-4-phosphonobutyric acid]")
0.0445
>>> measurednumber("C[N+](C)(C)CC#CCOC(=O)Nc1cccc(Cl)c1")
0.565
>>> measurednumber("Cc1c2ccncc2c(C)c2c1[nH]c1ccccc12")
-2.44

Switching to the query record.
Requested read-out: cFRET/donor change. Entry: CN1CCC[C@@H]1Cc1c[nH]c2ccc(Nc3ncccc3[N+](=O)[O-])cc12 0.0254
